Data credit: patent US10246453B2

Target: NaV1.5 (Homo sapiens (Human), UniProt Q14524)
Sequence (Q14524 other isoform, or with tags, fused parts or gaps): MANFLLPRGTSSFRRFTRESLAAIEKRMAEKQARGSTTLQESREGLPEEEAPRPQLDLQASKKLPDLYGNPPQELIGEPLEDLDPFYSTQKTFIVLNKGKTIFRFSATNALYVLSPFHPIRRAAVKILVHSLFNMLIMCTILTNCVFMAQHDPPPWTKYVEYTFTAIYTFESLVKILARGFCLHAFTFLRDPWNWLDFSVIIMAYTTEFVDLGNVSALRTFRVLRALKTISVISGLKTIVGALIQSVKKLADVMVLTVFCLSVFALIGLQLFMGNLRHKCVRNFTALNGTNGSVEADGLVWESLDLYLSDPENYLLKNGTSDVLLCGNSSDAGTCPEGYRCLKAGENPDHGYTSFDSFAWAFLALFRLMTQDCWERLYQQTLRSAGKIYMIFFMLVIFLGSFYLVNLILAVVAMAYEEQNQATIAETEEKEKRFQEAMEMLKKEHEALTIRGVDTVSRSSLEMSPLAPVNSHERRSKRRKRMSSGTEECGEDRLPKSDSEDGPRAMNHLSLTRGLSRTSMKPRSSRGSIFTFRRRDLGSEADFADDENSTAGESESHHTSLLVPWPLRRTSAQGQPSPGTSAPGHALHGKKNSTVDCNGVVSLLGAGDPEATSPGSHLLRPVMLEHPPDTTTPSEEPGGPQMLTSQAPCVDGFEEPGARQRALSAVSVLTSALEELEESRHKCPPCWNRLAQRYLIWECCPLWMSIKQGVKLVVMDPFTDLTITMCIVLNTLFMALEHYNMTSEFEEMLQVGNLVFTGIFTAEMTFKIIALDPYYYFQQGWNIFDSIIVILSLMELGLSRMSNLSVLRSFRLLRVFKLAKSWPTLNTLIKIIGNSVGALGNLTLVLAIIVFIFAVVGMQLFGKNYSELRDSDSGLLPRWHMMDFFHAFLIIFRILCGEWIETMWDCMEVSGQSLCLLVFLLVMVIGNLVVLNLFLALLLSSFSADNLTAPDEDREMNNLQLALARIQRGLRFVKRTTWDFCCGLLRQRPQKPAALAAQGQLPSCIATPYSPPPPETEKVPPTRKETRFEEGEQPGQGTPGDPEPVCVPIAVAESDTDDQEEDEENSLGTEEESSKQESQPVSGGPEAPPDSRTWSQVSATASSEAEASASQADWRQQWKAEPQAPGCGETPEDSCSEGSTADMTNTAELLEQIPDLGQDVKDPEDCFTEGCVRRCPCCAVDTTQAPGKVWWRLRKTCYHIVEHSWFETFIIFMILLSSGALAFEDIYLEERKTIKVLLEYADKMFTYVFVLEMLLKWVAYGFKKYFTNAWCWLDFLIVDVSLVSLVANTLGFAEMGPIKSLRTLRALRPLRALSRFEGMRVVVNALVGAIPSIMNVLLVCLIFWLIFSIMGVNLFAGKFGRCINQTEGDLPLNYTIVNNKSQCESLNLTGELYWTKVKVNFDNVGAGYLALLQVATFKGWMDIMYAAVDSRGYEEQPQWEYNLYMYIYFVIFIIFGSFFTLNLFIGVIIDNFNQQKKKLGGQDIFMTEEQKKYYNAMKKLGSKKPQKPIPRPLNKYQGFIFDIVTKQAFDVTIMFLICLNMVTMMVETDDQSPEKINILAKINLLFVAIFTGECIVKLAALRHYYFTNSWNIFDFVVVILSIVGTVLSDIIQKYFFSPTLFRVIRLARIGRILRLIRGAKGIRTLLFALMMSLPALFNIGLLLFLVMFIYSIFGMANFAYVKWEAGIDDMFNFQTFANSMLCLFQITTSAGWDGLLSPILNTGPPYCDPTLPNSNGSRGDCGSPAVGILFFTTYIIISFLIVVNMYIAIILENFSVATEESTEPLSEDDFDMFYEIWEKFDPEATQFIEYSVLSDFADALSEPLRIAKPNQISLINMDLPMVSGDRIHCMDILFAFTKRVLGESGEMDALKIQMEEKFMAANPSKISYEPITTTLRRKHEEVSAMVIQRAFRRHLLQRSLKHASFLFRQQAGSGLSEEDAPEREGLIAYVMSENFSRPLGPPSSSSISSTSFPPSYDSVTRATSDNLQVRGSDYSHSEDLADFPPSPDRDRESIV
Test: Sodium Influx Assay (Flux), NaV1.5
Details: read-out: Flux NaV1.5 IC50; Trex HEK293 cells, ANG2 dye; arithmetic mean
Structures can show the parent of a compound that is named as a salt.
recorded metric: IC50 (µM)

>  <compound>
O=S(=O)(Nc1nccs1)c1cc(Cl)c(O[C@@H]2C[C@H]3CC[C@@H](C2)N3Cc2cccc(Cl)c2)cc1F

>  <subject of test>
NaV1.5 (Homo sapiens (Human), UniProt Q14524)

>  <relational operator>
>

>  <experimental result>
30

$$$$
>  <compound>
CN(c1ccc(S(=O)(=O)Nc2ncns2)cc1Cl)[C@H]1CCN(Cc2ccccc2)C1 [Example 29, hydrochloride salt]

>  <subject of test>
NaV1.5 (Homo sapiens (Human), UniProt Q14524)

>  <relational operator>
=

>  <experimental result>
29.5

$$$$
>  <compound>
CC1(Oc2ccc(S(=O)(=O)Nc3nccs3)cc2Cl)CCN(Cc2ccccc2)CC1

>  <subject of test>
NaV1.5 (Homo sapiens (Human), UniProt Q14524)

>  <relational operator>
=

>  <experimental result>
4.68

$$$$
>  <compound>
CN(c1cc(F)c(S(=O)(=O)Nc2cscn2)cc1Cl)[C@H]1CCN(Cc2ccccc2F)C1

>  <subject of test>
NaV1.5 (Homo sapiens (Human), UniProt Q14524)

>  <relational operator>
=

>  <experimental result>
14.2

$$$$
>  <compound>
O=S(=O)(Nc1nccs1)c1ccc(OC2CCN(Cc3cccc(F)c3)CC2)c(Cl)c1

>  <subject of test>
NaV1.5 (Homo sapiens (Human), UniProt Q14524)

>  <relational operator>
=

>  <experimental result>
7.22

$$$$
>  <compound>
Cc1cc(S(=O)(=O)Nc2cscn2)c(F)cc1N[C@@H]1CCN(Cc2ccccc2)C1 [Example 271, formate]

>  <subject of test>
NaV1.5 (Homo sapiens (Human), UniProt Q14524)

>  <relational operator>
=

>  <experimental result>
8.18

$$$$
>  <compound>
Cc1cc(S(=O)(=O)Nc2cscn2)c(F)cc1N(C)[C@H]1CCN(Cc2cccc(F)c2)C1

>  <subject of test>
NaV1.5 (Homo sapiens (Human), UniProt Q14524)

>  <relational operator>
=

>  <experimental result>
18.6

$$$$
